We begin with a simple list: items and their reported shrunken log2 fold change.
tested on: Escherichia coli TOP10; assay: shrunken log2 fold change of peptide-encoding DNA abundance (4.5 h post-induction vs induction); higher = less antimicrobial activity (less host growth inhibition); conditions: time post-induction: 4.5 h; library: site-saturation at positions 5, 18, 19, 20

Returns the measured shrunken log2 fold change for the input sequence. Input: RRIRSRPPRLPRPRPRPYFFPRP -0.682

Returns the measured shrunken log2 fold change for the input sequence. Input: RRIRERPPRLPRPRPRPPHCPRP 0.118

Returns the measured shrunken log2 fold change for the input sequence. Input: RRIRCRPPRLPRPRPRPLDMPRP -0.549

Returns the measured shrunken log2 fold change for the input sequence. Input: RRIRKRPPRLPRPRPRPGDQPRP -0.00987

====

tested on: Escherichia coli TOP10; assay: shrunken log2 fold change of peptide-encoding DNA abundance (4.5 h post-induction vs induction); higher = less antimicrobial activity (less host growth inhibition); conditions: time post-induction: 4.5 h; library: site-saturation at positions 5, 18, 19, 20
Values of shrunken log2 fold change greater than or equal to -0.05 map to MET; values below map to NOT MET.

Previously resolved entries follow.
RRIRIRPPRLPRPRPRPKPHPRP: MET
RRIRARPPRLPRPRPRPTRQPRP: MET
RRIRFRPPRLPRPRPRPVDNPRP: MET
RRIRVRPPRLPRPRPRPYALPRP: NOT MET

Item RRIRIRPPRLPRPRPRPGKLPRP with shrunken log2 fold change of -0.05 or above? MET

Item RRIRYRPPRLPRPRPRPSATPRP with shrunken log2 fold change of -0.05 or above? NOT MET

Item RRIRVRPPRLPRPRPRPKLNPRP with shrunken log2 fold change of -0.05 or above? NOT MET

Item RRIRPRPPRLPRPRPRPGAAPRP with shrunken log2 fold change of -0.05 or above? MET

Item RRIRGRPPRLPRPRPRPKRCPRP with shrunken log2 fold change of -0.05 or above? MET

Item RRIRQRPPRLPRPRPRPTQQPRP with shrunken log2 fold change of -0.05 or above? MET

Item RRIRNRPPRLPRPRPRPSPIPRP with shrunken log2 fold change of -0.05 or above? NOT MET

Item RRIRSRPPRLPRPRPRPRVQPRP with shrunken log2 fold change of -0.05 or above? NOT MET

Item RRIRNRPPRLPRPRPRPFEHPRP with shrunken log2 fold change of -0.05 or above? MET

Item RRIRPRPPRLPRPRPRPQWRPRP with shrunken log2 fold change of -0.05 or above? MET

Item RRIRLRPPRLPRPRPRPNSKPRP with shrunken log2 fold change of -0.05 or above? NOT MET

Item RRIRSRPPRLPRPRPRPFCRPRP with shrunken log2 fold change of -0.05 or above? NOT MET

Item RRIRARPPRLPRPRPRPELRPRP with shrunken log2 fold change of -0.05 or above? MET

Item RRIRTRPPRLPRPRPRPWNNPRP with shrunken log2 fold change of -0.05 or above? NOT MET

Item RRIRVRPPRLPRPRPRPFAWPRP with shrunken log2 fold change of -0.05 or above? MET

Item RRIRQRPPRLPRPRPRPCCVPRP with shrunken log2 fold change of -0.05 or above? MET

====

We begin with a simple list: items and their reported shrunken log2 fold change.
system: Escherichia coli TOP10; experiment: shrunken log2 fold change of peptide-encoding DNA abundance (4.5 h post-induction vs induction); higher = less antimicrobial activity (less host growth inhibition); conditions: time post-induction: 4.5 h; library: site-saturation at positions 5, 18, 19, 20
Quick one: just the number, no unit, thanks!

These solved cases illustrate the format of a correct answer.
RRIRTRPPRLPRPRPRPFLEPRP: -0.417
RRIRERPPRLPRPRPRPTISPRP: -0.163
RRIRVRPPRLPRPRPRPLYRPRP: -0.047

Pending sequence:
Returns the measured shrunken log2 fold change for the input sequence. Input: RRIRPRPPRLPRPRPRPPAWPRP 0.452

====

test system: Escherichia coli TOP10; test: shrunken log2 fold change of peptide-encoding DNA abundance (4.5 h post-induction vs induction); higher = less antimicrobial activity (less host growth inhibition); conditions: time post-induction: 4.5 h; library: site-saturation at positions 5, 18, 19, 20
We begin with a simple list: items and their reported shrunken log2 fold change.

These solved cases illustrate the format of a correct answer.
RRIRARPPRLPRPRPRPWHLPRP: -0.0312
RRIRPRPPRLPRPRPRPRNSPRP: 0.0183
RRIRLRPPRLPRPRPRPCKWPRP: 0.117
RRIRSRPPRLPRPRPRPRDHPRP: 0.0497
RRIRERPPRLPRPRPRPNGDPRP: -0.0249
RRIRNRPPRLPRPRPRPTRTPRP: 0.211
RRIRARPPRLPRPRPRPKDWPRP: 0.578
RRIRWRPPRLPRPRPRPGNSPRP: -0.22

Returns the measured shrunken log2 fold change for the input sequence. Input: RRIRIRPPRLPRPRPRPHRLPRP -0.122

Returns the measured shrunken log2 fold change for the input sequence. Input: RRIRLRPPRLPRPRPRPNMNPRP -0.68

Returns the measured shrunken log2 fold change for the input sequence. Input: RRIRTRPPRLPRPRPRPWRTPRP 0.112

Returns the measured shrunken log2 fold change for the input sequence. Input: RRIRCRPPRLPRPRPRPHIRPRP -0.585

Returns the measured shrunken log2 fold change for the input sequence. Input: RRIRARPPRLPRPRPRPKVRPRP 0.047

Returns the measured shrunken log2 fold change for the input sequence. Input: RRIRARPPRLPRPRPRPDWIPRP -0.0382

Returns the measured shrunken log2 fold change for the input sequence. Input: RRIRHRPPRLPRPRPRPNHCPRP -0.0509

Returns the measured shrunken log2 fold change for the input sequence. Input: RRIRIRPPRLPRPRPRPDRSPRP -0.364

Returns the measured shrunken log2 fold change for the input sequence. Input: RRIRARPPRLPRPRPRPKERPRP 0.415

Returns the measured shrunken log2 fold change for the input sequence. Input: RRIRCRPPRLPRPRPRPSMIPRP -0.892

Returns the measured shrunken log2 fold change for the input sequence. Input: RRIRERPPRLPRPRPRPTESPRP 5.08

Returns the measured shrunken log2 fold change for the input sequence. Input: RRIRRRPPRLPRPRPRPPDIPRP -0.0254

Returns the measured shrunken log2 fold change for the input sequence. Input: RRIRWRPPRLPRPRPRPFAAPRP 0.862

Returns the measured shrunken log2 fold change for the input sequence. Input: RRIRMRPPRLPRPRPRPYCTPRP -0.00702

Returns the measured shrunken log2 fold change for the input sequence. Input: RRIRPRPPRLPRPRPRPEENPRP 0.163

Returns the measured shrunken log2 fold change for the input sequence. Input: RRIRGRPPRLPRPRPRPKDRPRP 0.89

Returns the measured shrunken log2 fold change for the input sequence. Input: RRIRPRPPRLPRPRPRPWRQPRP 0.0206

====

system: Escherichia coli TOP10; assay: shrunken log2 fold change of peptide-encoding DNA abundance (4.5 h post-induction vs induction); higher = less antimicrobial activity (less host growth inhibition); details: time post-induction: 4.5 h; library: site-saturation at positions 5, 18, 19, 20
observed_property: shrunken log2 fold change
Quick one: just the number, no unit, thanks!

These solved cases illustrate the format of a correct answer.
RRIRIRPPRLPRPRPRPWQAPRP: -0.115
RRIRERPPRLPRPRPRPEHAPRP: -0.0115
RRIRIRPPRLPRPRPRPELGPRP: 0.0694

Pending sequence:
Returns the measured shrunken log2 fold change for the input sequence. Input: RRIRIRPPRLPRPRPRPYSTPRP -1.85

====

We begin with a simple list: items and their reported shrunken log2 fold change.
tested on: Escherichia coli TOP10; assay: shrunken log2 fold change of peptide-encoding DNA abundance (4.5 h post-induction vs induction); higher = less antimicrobial activity (less host growth inhibition); settings: time post-induction: 4.5 h; library: site-saturation at positions 5, 18, 19, 20;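 note: peptides expressed intracellularly from a pBAD plasmid library in pooled LB shake-flask culture, induced with 0.3% L-arabinose, DNA abundance read by NGS, three biological replicates, DESeq2 with apeglm shrinkage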
Quick one: just the number, no unit, thanks!

Returns the measured shrunken log2 fold change for the input sequence. Input: RRIRLRPPRLPRPRPRPHACPRP 0.0658

Returns the measured shrunken log2 fold change for the input sequence. Input: RRIRCRPPRLPRPRPRPIGTPRP -0.279

Returns the measured shrunken log2 fold change for the input sequence. Input: RRIRIRPPRLPRPRPRPKMSPRP -0.327

Returns the measured shrunken log2 fold change for the input sequence. Input: RRIRQRPPRLPRPRPRPFFPPRP -0.0441

Returns the measured shrunken log2 fold change for the input sequence. Input: RRIRSRPPRLPRPRPRPPDYPRP -0.0864

Returns the measured shrunken log2 fold change for the input sequence. Input: RRIRERPPRLPRPRPRPQGAPRP 0.169

Returns the measured shrunken log2 fold change for the input sequence. Input: RRIRHRPPRLPRPRPRPYCIPRP -0.21

Returns the measured shrunken log2 fold change for the input sequence. Input: RRIRWRPPRLPRPRPRPKCLPRP -0.197
